EXPERIMENTAL_DETAILS: Cytotoxicity against mouse RAW264.7 cells assessed as cell survival at 50 uM by MTT assay
Format: cell-based
SETUP_CONDITIONS: read-out: Survival
QUANTITY_NAME: viability at 50 µM

Task: For the compound CC(=O)O[C@H](C[C@@H](O)C[C@@H]1OC(=O)C=C[C@@H]1O)C[C@H](O)/C=C/c1ccccc1 , what viability at 50 µM is on record?
Result: < 15%
